These data points were gathered from patent US9040524B2.

System: Aspergillus fumigatus
Assay: Antifungal activity in vitro, resazurin growth inhibition screen: Aspergillus fumigatus
Type: cell-based
Conditions: Aspergillus fumigatus B42928; read-out: Inf. E pIC50 (converted)
QUANTITY_MEASURED: IC50

Clc1ccc2c(c1Cl)CN=C(c1ccc3c(c1)CCO3)c1cccn1-2    > 64.6 µM
O=C1OCc2ccc(C3=NCc4c(F)cccc4-n4cccc43)cc21    > 64.6 µM
Clc1ccc(Cl)c2c1CN=C(c1ccc3c(c1)CCC3)c1cccn1-2    > 32.4 µM

What measured IC50 goes with "O=C1CCCc2cc(C3=NCc4ccc(Cl)cc4-n4cccc43)ccc21" ? > 64.6 µM

What measured IC50 goes with "Fc1cc(F)c2c(c1)-n1cccc1C(c1ccc3c(c1)CCC(F)(F)O3)=NC2" ? > 64.6 µM

----------
Consider the following compounds and their measured IC50 readings.
System: Trichophyton mentagrophytes
Assay: Antifungal activity in vitro, resazurin growth inhibition screen: Trichophyton mentagrophytes
Type: cell-based
Conditions: Trichophyton mentagrophytes B70554; read-out: Inf. G pIC50 (converted)
Respond numerically; units are µM and should not be typed.

Solved cases below.
FC1(F)CCc2cc(C3=NCc4cccc(Cl)c4-n4cccc43)ccc2O1 [Compound 72]    1.62
O=C1CCc2cc(C3=NCc4cccc(Cl)c4-n4cccc43)ccc21 [Compound 57]    3.98
Cn1c(=O)oc2ccc(C3=NCc4c(Cl)cccc4-n4cccc43)cc21 [Compound 80]    5.37
Clc1cccc2c1CN=C(c1ccc3c(c1)OCC3)c1cccn1-2 [Compound 36]    0.24
FC1(F)CCc2cc(C3=NCc4c(Cl)cccc4-n4cccc43)ccc2O1 [Compound 69]    0.38

What measured IC50 goes with Clc1ccc2c(c1Cl)CN=C(c1ccc3c(c1)CCO3)c1cccn1-2 [Compound 44] ? 7.94

What measured IC50 goes with O=C1OCc2cc(C3=NCc4c(Cl)cccc4-n4cccc43)ccc21 [Compound 65] ? 1.91

----------
Consider the following compounds and their measured melting point readings.

Solved cases below.
Clc1cccc2c1CN=C(c1ccc3c(c1)CCCC3)c1cccn1-2    180 to 181.5 °C
Clc1cc(Cl)c2c(c1)-n1cccc1C(c1ccc3c(c1)CCO3)=NC2    190 to 191.8 °C
O=C1CCCc2cc(C3=NCc4c(Cl)cccc4-n4cccc43)ccc21    209.8 to 210.7 °C
O=C1OCc2cc(C3=NCc4c(Cl)cccc4-n4cccc43)ccc21    251.2 to 253 °C
Clc1cccc2c1-n1cccc1C(c1ccc3c(c1)CCCO3)=NC2    103.7 °C
Clc1cccc2c1CN=C(c1ccc3c(c1)CCO3)c1cccn1-2    206.4 to 208.9 °C

What measured melting point goes with "Clc1ccc2c(c1Cl)CN=C(c1ccc3c(c1)CCC3)c1cccn1-2" ? 199.3 to 201.6 °C

What measured melting point goes with "FC1(F)CCc2cc(C3=NCc4c(Cl)cccc4-n4cccc43)ccc2O1" ? 199.7 to 201.2 °C

What measured melting point goes with "O=C1OCc2ccc(C3=NCc4c(Cl)cccc4-n4cccc43)cc21" ? 107.9 °C (dec.)

What measured melting point goes with "Clc1ccc(Cl)c2c1CN=C(c1ccc3c(c1)CCC3)c1cccn1-2" ? 194 to 194.2 °C

What measured melting point goes with "O=C1CCc2cc(C3=NCc4c(Cl)cccc4-n4cccc43)ccc21" ? 226.7 to 227.6 °C
